Would you kindly list IC50 for each of these compounds?
- assayedTarget: EGFR L858R (Homo sapiens, UniProt P00533, L858R)
- Construct: purchased Carna Bio
- Sequence (P00533 25-1210 L858R): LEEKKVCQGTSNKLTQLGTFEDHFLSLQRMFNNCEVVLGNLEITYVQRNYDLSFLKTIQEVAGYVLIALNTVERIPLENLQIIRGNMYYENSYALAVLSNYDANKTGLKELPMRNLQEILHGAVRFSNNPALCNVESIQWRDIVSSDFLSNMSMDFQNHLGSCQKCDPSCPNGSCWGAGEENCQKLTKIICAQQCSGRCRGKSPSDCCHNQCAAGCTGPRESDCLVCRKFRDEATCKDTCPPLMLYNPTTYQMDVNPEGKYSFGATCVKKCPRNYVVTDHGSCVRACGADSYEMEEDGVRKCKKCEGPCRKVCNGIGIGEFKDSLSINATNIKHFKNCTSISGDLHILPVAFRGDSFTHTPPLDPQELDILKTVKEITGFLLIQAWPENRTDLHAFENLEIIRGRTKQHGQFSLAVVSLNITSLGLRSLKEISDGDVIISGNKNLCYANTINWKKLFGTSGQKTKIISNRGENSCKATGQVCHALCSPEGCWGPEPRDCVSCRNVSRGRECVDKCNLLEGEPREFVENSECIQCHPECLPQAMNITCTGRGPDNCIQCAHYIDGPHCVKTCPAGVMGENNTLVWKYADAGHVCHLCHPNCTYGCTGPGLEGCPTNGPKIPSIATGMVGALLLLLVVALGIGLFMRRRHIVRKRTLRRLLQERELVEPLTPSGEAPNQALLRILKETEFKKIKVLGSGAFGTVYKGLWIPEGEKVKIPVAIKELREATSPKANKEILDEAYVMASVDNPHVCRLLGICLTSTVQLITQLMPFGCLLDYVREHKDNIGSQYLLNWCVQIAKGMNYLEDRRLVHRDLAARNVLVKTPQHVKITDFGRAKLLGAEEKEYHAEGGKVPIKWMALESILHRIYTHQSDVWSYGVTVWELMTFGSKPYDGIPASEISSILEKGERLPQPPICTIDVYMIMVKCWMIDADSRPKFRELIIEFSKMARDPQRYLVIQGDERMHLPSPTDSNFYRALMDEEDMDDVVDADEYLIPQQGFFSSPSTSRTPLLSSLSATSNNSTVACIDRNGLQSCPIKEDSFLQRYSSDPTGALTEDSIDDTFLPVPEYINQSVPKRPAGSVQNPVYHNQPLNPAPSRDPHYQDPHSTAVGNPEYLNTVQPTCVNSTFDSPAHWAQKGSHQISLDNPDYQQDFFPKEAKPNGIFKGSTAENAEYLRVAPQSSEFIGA
- experimentNotes: Inhibition of EGFR L858R biochemical enzymatic activity (HTRF)
- condition: 1 mM ATP, 1 h at room temperature, read-out: IC50 @L858R
Give the quantity in nM, number only.

Query block: Request - read-out IC50 | tested on EGFR L858R (Homo sapiens, UniProt P00533, L858R) | compound COCCN(C)c1ccc2nc3n(c2c1)C12CCC(CN(CCOc4c(cnn4C)-c4cc(cc(C)n4)C(=O)N3)C1)C2 (single isomer, unassigned) [Example B46B]
Result block: 377

Query block: Request - read-out IC50 | tested on EGFR L858R (Homo sapiens, UniProt P00533, L858R) | compound Cc1cc2cc(n1)-c1cnn(C)c1OCCN1CC3CCC(CC3)(C1)n1c(nc3ccc(N4CCN(C(C)C)CC4)cc31)NC2=O [Example B39]
Result block: 282

Query block: Request - read-out IC50 | tested on EGFR L858R (Homo sapiens, UniProt P00533, L858R) | compound Cc1cc2cc(n1)-c1cnn(C)c1OCCN1CC3CCC(C3)(C1)n1c(nc3ccc(N4CC(N5CCOCC5)C4)cc31)NC2=O (single isomer, unassigned) [Example B48B]
Result block: 142

Query block: Request - read-out IC50 | tested on EGFR L858R (Homo sapiens, UniProt P00533, L858R) | compound Cc1cc2cc(n1)-c1cnn(C)c1OCCN1CC3CCC(C3)(C1)n1c(nc3ccc(N4CC[C@H](N(C)C)C4)cc31)NC2=O (single isomer, unassigned) [Example B41B]
Result block: 34

Query block: Request - read-out IC50 | tested on EGFR L858R (Homo sapiens, UniProt P00533, L858R) | compound Cc1cc2cc(n1)-c1cnn(C)c1OCCN1CC3CCC(C3)(C1)n1c(nc3ccc(N4CCC(N5CCN(C)CC5)CC4)cc31)NC2=O (single isomer, unassigned) [Example B59B]
Result block: 27

Query block: Request - read-out IC50 | tested on EGFR L858R (Homo sapiens, UniProt P00533, L858R) | compound Cc1cc2cc(n1)-c1cnn(C)c1OCCN1CC3CCC(C3)(C1)n1c(nc3ccc(N4CCC5(CC4)CCN5C)cc31)NC2=O (single isomer, unassigned) [Example B54B]
Result block: 13

Query block: Request - read-out IC50 | tested on EGFR L858R (Homo sapiens, UniProt P00533, L858R) | compound Cc1cc2cc(n1)-c1cnn(C)c1OCCN1CC3CCC(C3)(C1)n1c(nc3ccc(N4CCOCC4)cc31)NC2=O (single isomer, unassigned) [Example B10A]
Result block: 212

---

- assayedTarget: EGFR (C797S L858R) (Homo sapiens, UniProt P00533, C797S/L858R)
- Construct: purchased signalchem
- Sequence (P00533 25-1210 C797S/L858R): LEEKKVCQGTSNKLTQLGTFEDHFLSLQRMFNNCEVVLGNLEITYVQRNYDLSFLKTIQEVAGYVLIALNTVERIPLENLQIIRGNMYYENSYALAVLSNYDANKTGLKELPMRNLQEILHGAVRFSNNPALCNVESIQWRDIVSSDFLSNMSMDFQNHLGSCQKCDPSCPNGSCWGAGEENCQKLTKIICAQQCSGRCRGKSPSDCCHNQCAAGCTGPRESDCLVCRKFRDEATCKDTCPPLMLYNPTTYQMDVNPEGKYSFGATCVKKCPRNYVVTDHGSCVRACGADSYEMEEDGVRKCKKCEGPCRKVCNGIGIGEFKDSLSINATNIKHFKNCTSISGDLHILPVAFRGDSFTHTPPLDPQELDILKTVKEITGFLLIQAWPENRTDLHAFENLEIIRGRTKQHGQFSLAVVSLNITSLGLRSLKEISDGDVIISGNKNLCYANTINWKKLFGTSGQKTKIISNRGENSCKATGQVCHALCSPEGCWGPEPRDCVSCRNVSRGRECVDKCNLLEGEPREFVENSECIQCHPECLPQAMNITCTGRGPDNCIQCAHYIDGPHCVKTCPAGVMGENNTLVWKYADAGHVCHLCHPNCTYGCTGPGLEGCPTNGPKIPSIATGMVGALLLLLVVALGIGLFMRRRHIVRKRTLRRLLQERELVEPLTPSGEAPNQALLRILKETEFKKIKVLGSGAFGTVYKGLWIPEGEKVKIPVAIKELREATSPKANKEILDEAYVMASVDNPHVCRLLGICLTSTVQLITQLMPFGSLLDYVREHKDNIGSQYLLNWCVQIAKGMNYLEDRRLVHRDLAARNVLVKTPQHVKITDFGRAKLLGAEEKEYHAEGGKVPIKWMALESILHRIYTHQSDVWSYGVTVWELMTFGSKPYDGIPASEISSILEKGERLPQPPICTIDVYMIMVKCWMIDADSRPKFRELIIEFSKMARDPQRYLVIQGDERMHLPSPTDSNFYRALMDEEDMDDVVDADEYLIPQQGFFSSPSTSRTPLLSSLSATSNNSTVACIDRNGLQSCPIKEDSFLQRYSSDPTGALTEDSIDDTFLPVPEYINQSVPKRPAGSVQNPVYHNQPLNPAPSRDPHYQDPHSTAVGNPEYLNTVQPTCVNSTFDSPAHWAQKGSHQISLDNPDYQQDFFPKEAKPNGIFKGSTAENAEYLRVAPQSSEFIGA
- experimentNotes: Inhibition of EGFR (C797S L858R) biochemical enzymatic activity (HTRF)
- condition: EGFR L858-C797S, 1 mM ATP, 1 h, room temperature, read-out: IC50 (nM) @L858-C797S
quantity: IC50 (nM)
Give the quantity in nM, number only.

Query block: Query: IC50; subject: CN1CCC2CN(c3ccc4nc5n(c4c3)C34CCC(CN(CCOc6c(cnn6C)-c6cc(cn(C)c6=O)C(=O)N5)C3)C4)CC21 (single isomer, unassigned) [Example A79B]
Result block: 13

Query block: Query: IC50; subject: Cn1ncc2c1OCCN1CC3CCC(C3)(C1)n1c(nc3ccc(N4CCC(N5CC(F)C5)C4)cc31)NC(=O)c1cc-2c(=O)n(C)c1 (single isomer, unassigned) [Example A94B2]
Result block: 30

Query block: Query: IC50; subject: CN(C)C1CCN(c2ccc3nc4n(c3c2)C23CCC(CN(CCOc5c(cnn5C)-c5cc(cn(C)c5=O)C(=O)N4)C2)C3)CC1(F)F (single isomer, unassigned) [Example A97A]
Result block: 3950

Query block: Query: IC50; subject: CCC1CCCOc2c(cnn2C)-c2cc(cn(C)c2=O)C(=O)Nc2nc3ccc(N4CCN(C)CC4)cc3n2C1 (single isomer, unassigned) [Example A16A]
Result block: 1350

Query block: Query: IC50; subject: Cc1cc2cc(n1)-c1cnn(C)c1OCCN1CC3CCC(CC3)(C1)n1c(nc3ccc(N4CCOCC4)cc31)NC2=O [Example B2]
Result block: 28

Query block: Query: IC50; subject: CN1C2CC1CN(c1ccc3nc4n(c3c1)C13CCC(CN(CCOc5c(cnn5C)-c5cc(cn(C)c5=O)C(=O)N4)C1)C3)C2 (single isomer, unassigned) [Example A98B]
Result block: 4.1

Query block: Query: IC50; subject: CN1CCN(C2CN(c3ccc4nc5n(c4c3)C34CCC(CN(CCOc6c(cnn6C)-c6cc(cn(C)c6=O)C(=O)N5)C3)C4)C2)CC1 (single isomer, unassigned) [Example A70B]
Result block: 3.6

Query block: Query: IC50; subject: Cn1ncc2c1OCCN1CC3CCC(C3)(C1)n1c(nc3ccc(N4CCC(N5CC(F)C5)CC4)cc31)NC(=O)c1cc-2c(=O)n(C)c1 (single isomer, unassigned) [Example A87B]
Result block: 8.9

Query block: Query: IC50; subject: CN1CCN(c2ccc3c(c2)nc2n3C34CCC(CN(CCOc5c(cnn5C)-c5cc(cn(C)c5=O)C(=O)N2)C3)C4)CC1 (centres unmarked) [Example A60]
Result block: 619

Query block: Query: IC50; subject: C[C@@H]1CCCOc2cc(F)c(F)cc2-c2cc(cn(C)c2=O)C(=O)Nc2nc3ccc(N4CCN(C)CC4)cc3n2C1 [Example A111]
Result block: 40
